Cited source: patent US20150197561A1

# Kd values compiled below
- STUDY TARGET: T1, human Jagged2-Fc (extracellular domain of human Jagged2 fused to human Fc) (human, UniProt Q9Y219 27-1080)
- T1 construct: also called hJag2; not shown: human Fc
- T1 sequence (Q9Y219 27-1080 E501K): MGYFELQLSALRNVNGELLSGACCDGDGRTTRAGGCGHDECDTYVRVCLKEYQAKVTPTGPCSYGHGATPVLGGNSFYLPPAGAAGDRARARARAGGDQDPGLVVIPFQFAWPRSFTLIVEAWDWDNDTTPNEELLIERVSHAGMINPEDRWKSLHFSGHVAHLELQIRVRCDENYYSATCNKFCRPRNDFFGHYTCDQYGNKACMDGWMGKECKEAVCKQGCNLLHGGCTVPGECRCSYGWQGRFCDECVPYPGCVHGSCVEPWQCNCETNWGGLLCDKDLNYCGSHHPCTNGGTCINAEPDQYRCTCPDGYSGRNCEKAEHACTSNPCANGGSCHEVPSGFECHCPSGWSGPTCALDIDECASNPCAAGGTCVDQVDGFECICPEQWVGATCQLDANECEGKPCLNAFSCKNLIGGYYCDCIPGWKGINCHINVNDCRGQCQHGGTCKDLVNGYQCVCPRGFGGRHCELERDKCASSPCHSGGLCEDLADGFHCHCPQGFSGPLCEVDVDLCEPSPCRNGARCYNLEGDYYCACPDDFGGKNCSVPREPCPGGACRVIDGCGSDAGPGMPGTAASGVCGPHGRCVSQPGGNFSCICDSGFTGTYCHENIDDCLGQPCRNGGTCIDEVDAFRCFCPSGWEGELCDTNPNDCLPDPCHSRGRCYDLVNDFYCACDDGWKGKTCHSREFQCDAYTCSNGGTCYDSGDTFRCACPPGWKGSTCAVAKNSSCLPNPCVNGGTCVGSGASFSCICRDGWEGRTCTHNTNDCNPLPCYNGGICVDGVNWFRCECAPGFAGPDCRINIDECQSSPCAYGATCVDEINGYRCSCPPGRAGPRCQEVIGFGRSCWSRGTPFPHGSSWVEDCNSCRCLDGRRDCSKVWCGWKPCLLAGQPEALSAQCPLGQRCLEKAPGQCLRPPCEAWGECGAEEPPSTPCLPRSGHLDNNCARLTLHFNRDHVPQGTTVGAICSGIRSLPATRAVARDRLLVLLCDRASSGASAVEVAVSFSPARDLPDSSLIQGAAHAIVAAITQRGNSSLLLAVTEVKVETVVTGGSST
- EXPERIMENT SUMMARY: SPR, Biacore 2000; Jagged protein amine-coupled to CM5 chip, antibody injected 100-1.0 nM, global fit

[
  {
    "BINDER": "antibody 133R0205 (antibody, V domains shown) VH: QVQLVESGGGVVQPGRSLRLSCAASGFTFSSYAMHWVRQAPGKGLEWVAAIYPASSNKYYADSVKGRFTISRDNSKNTLYLQMNSLRAEDTAVYYCARDKYDIPDAFDIWGQGTLVTVS VL: DIRMTQSPSSLSASVGDRVTITCRASQGISNDLAWYQQKPGKVPRLLIYATSTLQSGVPSRFSGSGSATDFTLTISSLQPEDVATYYCQQSYNAPITFGQGTRLEIK",
    "UNIT OF MEASUREMENT": "nM",
    "Kd": 5.8
  },
  {
    "BINDER": "antibody 133R0203 (antibody, V domains shown) VH: QVQLVESGGGVVQPGRSLRLSCAASGFTFSSYAMHWVRQAPGKGLEWVAAISPEASNKYYADSVKGRFTISRDNSKNTLYLQMNSLRAEDTAVYYCARDKYDIPDAFDIWGQGTLVTVS VL: DIRMTQSPSSLSASVGDRVTITCRASQGISNDLAWYQQKPGKVPRLLIYATSTLQSGVPSRFSGSGSATDFTLTISSLQPEDVATYYCQQSYNAPITFGQGTRLEIK",
    "UNIT OF MEASUREMENT": "nM",
    "Kd": 3.7
  },
  {
    "BINDER": "64R7 IgG2 antibody (antibody, V domains shown, Human IgG2 / kappa, expressed in CHO cells; also called antibody 64R7; ATCC PTA-10470) VH: QVQLVESGGGVVQPGRSLRLSCAASGFTFSSYAMHWVRQAPGKGLEWVAVISYDGSNKYYADSVKGRFTISRDNSKNTLYLQMNSLRAEDTAVYYCARDKYDIPDAFDIWGQGTLVTVSS VL: DIRMTQSPSSLSASVGDRVTITCRASQGISNDLAWYQQKPGKVPRLLIYATSTLQSGVPSRFSGSGSATDFTLTISSLQPEDVATYYCQQSYNAPITFGQGTRLEIKR",
    "UNIT OF MEASUREMENT": "nM",
    "Kd": 10
  },
  {
    "BINDER": "antibody 133R0201 (antibody, V domains shown) VH: QVQLVESGGGVVQPGRSLRLSCAASGFTFSSYAMHWVRQAPGKGLEWVAAIYPDSSNKYYADSVKGRFTISRDNSKNTLYLQMNSLRAEDTAVYYCARDKYDIPDAFDIWGQGTLVTVS VL: DIRMTQSPSSLSASVGDRVTITCRASQGISNDLAWYQQKPGKVPRLLIYATSTLQSGVPSRFSGSGSATDFTLTISSLQPEDVATYYCQQSYNAPITFGQGTRLEIK",
    "UNIT OF MEASUREMENT": "nM",
    "Kd": 2.9
  }
]
